target: Blon_0883 (BiGFL-BP) (Bifidobacterium longum); construct: gene msmE_4; mature peptide, amino acids 24-460, signal peptide removed; N-terminal TEV-cleavable His tag cut; E. coli BL21(DE3); assay: isothermal titration calorimetry; assay type: binding; details: 25 °C, pH 6.5, 10 mM sodium phosphate; one-site model; free protein in solution
Sequence (A0AAX1LHV4 24-445): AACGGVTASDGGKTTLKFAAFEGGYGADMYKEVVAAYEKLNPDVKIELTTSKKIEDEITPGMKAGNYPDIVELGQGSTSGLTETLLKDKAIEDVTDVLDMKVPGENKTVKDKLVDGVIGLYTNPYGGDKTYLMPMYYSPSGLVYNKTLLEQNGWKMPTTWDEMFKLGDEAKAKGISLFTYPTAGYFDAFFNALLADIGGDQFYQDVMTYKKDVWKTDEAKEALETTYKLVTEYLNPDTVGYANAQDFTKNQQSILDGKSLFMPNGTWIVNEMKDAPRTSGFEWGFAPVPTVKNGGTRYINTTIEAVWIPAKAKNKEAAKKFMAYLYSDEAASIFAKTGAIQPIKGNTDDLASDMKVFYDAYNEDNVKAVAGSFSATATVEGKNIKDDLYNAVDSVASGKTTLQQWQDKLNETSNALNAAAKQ
quantity: Kd (nM)
Could you give me the number in nM? Just the number is fine.

CC(=O)N[C@H]1C(O)O[C@H](CO)[C@H](O)[C@@H]1O[C@@H]1O[C@H](CO)[C@H](O)[C@H](O)[C@H]1O (some centres unmarked) = 169

Field: next molecule
Q) Return the recorded Kd value; entry: CC(=O)N[C@H]1C(O)O[C@H](CO)[C@@H](O)[C@@H]1O[C@@H]1O[C@H](CO)[C@H](O)[C@H](O)[C@H]1O (some centres unmarked)
A) 68.5

// provenance: paper PMC12345172
